Numbers sourced from ChEMBL document CHEMBL4052665.

Test: Aqueous solubility of the compound in solution at pH 6.8
Type: physicochemical
Each record here notes measured solubility.

[
  {
    "Chem Smiles": "CN(Cc1cccc(-c2cnc(N3CCN(c4ccc(C(=O)O)cc4Cl)CC3)nc2)c1)C(=O)CN.Cl.Cl",
    "solubility": "2.3 µM"
  }
]

Now let's try a different one.
Dear colleague, I am looking for the recorded solubility of the following compound: CN(Cc1cccc(-c2cnc(N3CCN(c4ccc(C(=O)O)cc4)CC3)nc2)c1)C(=O)CN.Cl.Cl
< 1 µM

* * *

Test: Volume of distribution at steady state in Wistar rat at 1 mg/kg, iv by LC-MS/MS analysis
Type: ADME, organism-based
Conditions: in vivo, read-out: Vdss
Reported Property: Vd

Dear colleague, I am looking for the recorded Vd of the following molecule: CN(Cc1cccc(-c2cnc(N3CCN(c4ccc(C(=O)O)cc4Cl)CC3)nc2)c1)C(=O)CN.Cl.Cl
0.386 L/kg

* * *

Assay: Half life in Wistar rat at 1 mg/kg, iv by LC-MS/MS analysis
Assay type: ADME, organism-based
Conditions: in vivo
Reported Property: half-life (h)
Numeric only. Scale: h

Dear colleague, I am looking for the recorded half-life of the following compound: CN(Cc1cccc(-c2cnc(N3CCN(c4ccc(C(=O)O)cc4Cl)CC3)nc2)c1)C(=O)CN.Cl.Cl
1.39

* * *

Experiment: Plasma concentration in Wistar rat at 1 mg/kg, po after 1 hr post dose by LC-MS/MS analysis
Assay type: ADME, organism-based
Reported Property: concentration at 1 h (ng/mL)
Numeric only. Scale: ng/mL

Dear colleague, I am looking for the recorded concentration at 1 h of the following molecule: CN(Cc1cccc(-c2cnc(N3CCN(c4ccc(C(=O)O)cc4Cl)CC3)nc2)c1)C(=O)CN.Cl.Cl
111

* * *

Assay: Half life in Wistar rat at 1 mg/kg, po by LC-MS/MS analysis
Type: ADME, organism-based
Conditions: in vivo
Reported Property: half-life (h)
Numeric only. Scale: h

Dear colleague, I am looking for the recorded half-life of the following compound: CN(Cc1cccc(-c2cnc(N3CCN(c4ccc(C(=O)O)cc4Cl)CC3)nc2)c1)C(=O)CN.Cl.Cl
1.29

* * *

Biological target: CYP3A4 (Homo sapiens, UniProt P08684)
Sequence (P08684 whole entry): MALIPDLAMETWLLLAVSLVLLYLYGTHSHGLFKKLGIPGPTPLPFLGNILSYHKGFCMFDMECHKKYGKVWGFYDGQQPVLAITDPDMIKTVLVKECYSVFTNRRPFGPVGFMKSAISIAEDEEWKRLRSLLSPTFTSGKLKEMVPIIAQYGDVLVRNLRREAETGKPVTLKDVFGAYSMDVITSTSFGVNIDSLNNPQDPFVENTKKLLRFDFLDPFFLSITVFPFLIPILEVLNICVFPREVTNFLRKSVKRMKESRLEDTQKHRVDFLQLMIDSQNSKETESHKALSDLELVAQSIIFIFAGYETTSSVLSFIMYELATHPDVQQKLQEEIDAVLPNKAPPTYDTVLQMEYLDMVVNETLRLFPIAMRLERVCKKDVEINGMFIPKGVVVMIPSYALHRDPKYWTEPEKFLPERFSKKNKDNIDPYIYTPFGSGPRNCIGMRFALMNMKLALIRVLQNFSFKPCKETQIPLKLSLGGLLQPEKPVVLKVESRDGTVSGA
Assay: Inhibition of CYP3A4 in human liver microsomes assessed as residual activity at 5 uM using midazolam as substrate after 20 mins by LC-MS/MS analysis
Type: ADME
Conditions: probe midazolam, read-out: Activity
Each record here notes measured activity at 20 min, 5 µM.
Numeric only. Scale: %

[
  {
    "Chem Smiles": "CN(Cc1cccc(-c2ccc(N3CCOCC3)cc2)c1)C(=O)CN",
    "Endpoint Value": 57
  },
  {
    "Chem Smiles": "CN(Cc1cccc(-c2cnc(N3CCN(c4ccc(C(=O)O)cc4Cl)CC3)nc2)c1)C(=O)CN.Cl.Cl",
    "Endpoint Value": 98
  },
  {
    "Chem Smiles": "CN(Cc1cccc(-c2cnc(N3CCC(CCC(=O)O)CC3)nc2)c1)C(=O)CN",
    "Endpoint Value": 108
  },
  {
    "Chem Smiles": "CN(Cc1cccc(-c2cnc(N3CCC(C(=O)O)CC3)nc2)c1)C(=O)CN",
    "Endpoint Value": 112
  }
]

Now let's try a different one.
Dear colleague, I am looking for the recorded activity at 20 min, 5 µM of the following compound: CN(Cc1cccc(-c2cnc(N3CCN(c4ccc(C(=O)O)cc4)CC3)nc2)c1)C(=O)CN.Cl.Cl
100

* * *

Assay: Oral bioavailability in Wistar rat at 1 mg/kg by LC-MS/MS analysis
Assay type: ADME, organism-based
Conditions: in vivo
Reported Property: bioavailability (%)
Numeric only. Scale: %

Dear colleague, I am looking for the recorded bioavailability of the following compound: CN(Cc1cccc(-c2cnc(N3CCN(c4ccc(C(=O)O)cc4Cl)CC3)nc2)c1)C(=O)CN.Cl.Cl
17.4

* * *

Experiment: Plasma concentration in Wistar rat at 1 mg/kg, po after 6 hrs post dose by LC-MS/MS analysis
Format: ADME, organism-based
Reported Property: concentration at 6 h
Please state the number and follow it with the unit.

Dear colleague, I am looking for the recorded concentration at 6 h of the following compound: CN(Cc1cccc(-c2cnc(N3CCN(c4ccc(C(=O)O)cc4Cl)CC3)nc2)c1)C(=O)CN.Cl.Cl
7.1 ng/mL

* * *

Experiment: AUC (0 to 24 hrs) in Wistar rat at 1 mg/kg, po by LC-MS/MS analysis
Format: ADME, organism-based
Parameters: dose 1 mg/kg, time < 24 hr, route oral
Conditions: in vivo
Reported Property: AUC(0-t) at 24 h
Please state the number and follow it with the unit.

Dear colleague, I am looking for the recorded AUC(0-t) at 24 h of the following compound: CN(Cc1cccc(-c2cnc(N3CCN(c4ccc(C(=O)O)cc4Cl)CC3)nc2)c1)C(=O)CN.Cl.Cl
334 ng·h/mL

* * *

Experiment: Total clearance in Wistar rat at 1 mg/kg, iv by LC-MS/MS analysis
Format: ADME, organism-based
Settings: in vivo
Reported Property: clearance (mL/min/kg)
Numeric only. Scale: mL/min/kg

Dear colleague, I am looking for the recorded clearance of the following compound: CN(Cc1cccc(-c2cnc(N3CCN(c4ccc(C(=O)O)cc4Cl)CC3)nc2)c1)C(=O)CN.Cl.Cl
8.69
